# system_under_test: proteasome (Homo sapiens, UniProt P28074)
# Construct: other: Jurkat IκB-Bla cells, TNFα stimulation; effect on the TNFα-stimulated decrease in reporter level; other: 10 μM for 60 minutes prior to TNFα 10 ng/ml; CCF2/AM
# Sequence (P28074 60-263): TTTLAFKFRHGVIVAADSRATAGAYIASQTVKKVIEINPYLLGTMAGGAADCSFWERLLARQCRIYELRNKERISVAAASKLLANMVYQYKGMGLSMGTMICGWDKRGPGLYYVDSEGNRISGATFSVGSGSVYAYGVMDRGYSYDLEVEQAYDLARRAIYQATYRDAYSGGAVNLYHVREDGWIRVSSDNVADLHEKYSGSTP
# Sequence (P28072 35-239 partner): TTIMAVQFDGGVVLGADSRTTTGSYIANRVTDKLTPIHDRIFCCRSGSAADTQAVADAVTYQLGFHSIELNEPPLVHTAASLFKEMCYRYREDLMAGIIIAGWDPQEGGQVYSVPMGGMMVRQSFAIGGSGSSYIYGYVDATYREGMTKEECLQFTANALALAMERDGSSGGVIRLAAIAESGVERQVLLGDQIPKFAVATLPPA
# Sequence (Q99436 44-277 partner): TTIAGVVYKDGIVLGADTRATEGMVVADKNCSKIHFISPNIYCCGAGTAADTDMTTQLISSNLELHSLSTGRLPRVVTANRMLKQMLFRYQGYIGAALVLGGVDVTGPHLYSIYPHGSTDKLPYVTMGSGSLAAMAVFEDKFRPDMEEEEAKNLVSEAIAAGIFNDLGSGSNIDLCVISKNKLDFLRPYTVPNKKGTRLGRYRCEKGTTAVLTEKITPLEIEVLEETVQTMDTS
# assay_details: Jurkat IκB-Bla reporter assay, inhibition of the TNFα-stimulated decrease in reporter level by proteasome inhibitors
# conditions: Jurkat IκB-Bla cells, TNFα stimulation; data not shown; read-out: IC50 for inhibition of the TNFα-stimulated decrease in reporter levels
Where a SMILES comes first, the peptide text is derived from it. [ ]: non-standard residue; d: D form. Nle = CCCC[C@H](N)C(=O)O
measured_property: pIC50
Numbers only, as −log10 of the molar value.

Prompt: Quick check: pIC50 on proteasome (Homo sapiens, UniProt P28074), item CCCC[C@@H](C=O)NC(=O)[C@H](CC(C)C)NC(=O)[C@H](CC(C)C)NC(C)=O [ALLN] (Ac-Leu-Leu-[Nle]-aldehyde) ?
Response: 5.30

Data origin, for the record: patent US7250268B2
